testSummary: in vitro
statedConditions: human, 30% human serum in RPMI medium
Residues, ends and D or L forms follow the SMILES beside them.
Reported half-life is given for each of the following compounds.

CC(=O)Nc1ccc(C(=O)N[C@@H](CCCNC(=N)N)C(=O)N[C@@H](CCCNC(=N)N)C(=O)N[C@@H](Cc2c[n+](Cc3ccc4ccccc4c3)cn2Cc2ccc3ccccc3c2)C(=O)N[C@@H](Cc2c[n+](Cc3ccc4ccccc4c3)cn2Cc2ccc3ccccc3c2)C(=O)N[C@@H](CCCNC(=N)N)C(=O)N[C@@H](Cc2ccccc2)C(N)=O)cc1 [Peptide P14, Aba-RR-Hdn-Hdn-RF-CONH2] : > 840 min

Query: # return recorded half-life for entry N=C(N)NCCC[C@H](NC(=O)[C@H](Cc1c[nH]c2ccccc12)NC(=O)[C@H](Cc1c[nH]c2ccccc12)NC(=O)[C@H](CCCNC(=N)N)NC(=O)[C@@H](N)CCCNC(=N)N)C(=O)N[C@@H](Cc1ccccc1)C(N)=O [Com2, H2N-RRWWRF-CONH2, reference compound] (H-RRWWRF-NH2)
Reply: ~24 min
